Collected AUC values appear next to each entry.
experiment summary: Pharmacokinetic experiment in rats
Assay type: in vivo, SD rats
measurement parameters: male, SD, rat, plasma; rats, Intravenous-Dose 4 mg/kg; read-out: Area Curve (AUC, ng/mL · h)
Structures can show the parent of a compound that is named as a salt.
Kindly answer with a numeric value in ng·h/mL, unit omitted.

I would be grateful if you could share the reported AUC for CCN(c1cc(-c2ccc3c(c2)N(CCOC)C(=O)C32CCOCC2)cc(C(=O)NCc2c(C)cc(C)[nH]c2=O)c1C)C1CCOCC1 . 944

I would be grateful if you could share the reported AUC for CCN(c1cc(-c2ccc3c(c2)NC(=O)C32CCOCC2)cc(C(=O)NCc2c(C)cc(C)[nH]c2=O)c1C)C1CCS(=O)(=O)CC1 . 990

I would be grateful if you could share the reported AUC for CCN(c1cc(-c2ccc3c(c2)C2(CC3)CC(C)N(CC)C(C)C2)cc(C(=O)NCc2c(OC)cc(C)[nH]c2=O)c1C)C1CCOCC1 (stereo not shown) [Example 50, formate] . 954

I would be grateful if you could share the reported AUC for CCN(c1cc(-c2ccc3c(c2)N(CC(F)(F)F)C(=O)C32CCOCC2)cc(C(=O)NCc2c(C)cc(C)[nH]c2=O)c1C)C1CCOCC1 . 975

I would be grateful if you could share the reported AUC for CCN(c1cc(-c2ccc3c(c2)NC(=O)C32CCNCC2)cc(C(=O)NCc2c(OC)cc(C)[nH]c2=O)c1C)C1CCNCC1 . 912

I would be grateful if you could share the reported AUC for CCN(c1cc(-c2ccc3c(c2)CCC32CCOCC2)cc(C(=O)NCc2c(OC)cc(C)[nH]c2=O)c1C)C1CCOC(C)(C)C1 (stereo not shown) . 1030

I would be grateful if you could share the reported AUC for CCN(c1cc(-c2ccc3c(c2)N(C)C(=O)C32CCN(C(C)C)CC2)c(F)c(C(=O)NCc2c(C)cc(C)[nH]c2=O)c1C)C1CCOCC1 . 932

I would be grateful if you could share the reported AUC for CCN(c1cc(-c2ccc3c(c2)NC(=O)C32CCOCC2)cc(C(=O)NCc2c(OC)cc(C)[nH]c2=O)c1C)C1CCNCC1 . 948

I would be grateful if you could share the reported AUC for CCN(c1cc(-c2ccc3c(c2)NCC32CCOCC2)cc(C(=O)NCc2c(C)cc(C)[nH]c2=O)c1C)C1CCNCC1 . 936

I would be grateful if you could share the reported AUC for CCN(c1cc(-c2ccc3c(c2)NC(=O)C32CCOCC2)cc(C(=O)NCc2c(OC)cc(C)[nH]c2=O)c1C)C1CCOCC1OC (stereo not shown) . 936

----------
System: human diffuse large B-cell lymphoma cells (Karpas 422 cell)
experiment summary: Karpas 422 cell proliferation, Calcein AM staining
Format: cell-based
measurement parameters: Homo sapiens, KARPAS-422; data of 14th day; read-out: Karpas422 Proliferation IC50 Nanomoles per Liter
reported endpoint: IC50 (nM)
Kindly answer with a numeric value in nM, unit omitted.

Examples from the recorded data:
compound | reported endpoint | value reported
CCN(c1cc(-c2ccc3c(c2)NC(=O)C32CCN(S(C)(=O)=O)CC2)cc(C(=O)NCc2c(C)cc(C)[nH]c2=O)c1C)C1CCOCC1 [Example 87] | IC50 | 2.34
CCN(c1cc(-c2ccc3c(c2)NC(=O)C32CCN(C(C)=O)CC2)cc(C(=O)NCc2c(C)cc(C)[nH]c2=O)c1C)C1CCOCC1 [Example 88] | IC50 | 2.76
CCN(c1cc(-c2ccc3c(c2)NC(=O)C32CCOCC2)cc(C(=O)NCc2c(C)cc(C)[nH]c2=O)c1C)C1CCSCC1 [Example 95] | IC50 | 2.79

I would be grateful if you could share the reported IC50 for CCN(c1cc(-c2ccc3c(c2)NC(=O)C32CCOCC2)cc(C(=O)NCc2c(C)cc(C)[nH]c2=O)c1C)C1CC(C)OC(C)C1 (stereo not drawn) [Example 104] . 1.82

I would be grateful if you could share the reported IC50 for CCN(c1cc(-c2ccc3c(c2)NC(=O)C32CCOCC2)cc(C(=O)NCc2c(C)cc(C)[nH]c2=O)c1C)C1CCC(N(C)C)CC1 (stereo not drawn) [Example 98] . 2.23

I would be grateful if you could share the reported IC50 for CCN(c1cc(-c2ccc3c(c2)NC(=O)C32CCOCC2)cc(C(=O)NCc2c(C)cc(C)[nH]c2=O)c1C)C1CCOCC1F (stereo not drawn) [Example 103] . 0.53

----------
Collected Cmax values appear next to each entry.
experiment summary: Pharmacokinetic experiment in rats
Format: in vivo, SD rats
measurement parameters: male, SD, rat, plasma; rats, Oral-Dose 20 mg/kg; read-out: Blood Drug level (Cmax, ng/mL)
Kindly answer with a numeric value in ng/mL, unit omitted.

Examples from the recorded data:
smiles entry | reported endpoint | value reported
CCN(c1cc(-c2ccc3c(c2)NC(=O)C32CCOCC2)cc(C(=O)NCc2c(OC)cc(C)[nH]c2=O)c1C)C1CCNCC1 | Cmax | 415
CCN(c1cc(-c2ccc3c(c2)NC(=O)C32CCOCC2)cc(C(=O)NCc2c(OC)cc(C)[nH]c2=O)c1C)C1CCOCC1 | Cmax | 415
CCN(c1cc(-c2ccc3c(c2)N(C(C)C)CC32CCOCC2)c(Cl)c(C(=O)NCc2c(OC)cc(C)[nH]c2=O)c1C)C1CCOCC1 | Cmax | 598

Read the next record carefully.
I would be grateful if you could share the reported Cmax for CCN(c1cc(-c2ccc3c(c2)NC(=O)C32CCNCC2)cc(C(=O)NCc2c(OC)cc(C)[nH]c2=O)c1C)C1CCNCC1 . 453

----------
System: human diffuse large B-cell lymphoma cells (Karpas 422 cell)
experiment summary: Karpas 422 cell proliferation, Calcein AM staining
Assay type: cell-based
measurement parameters: Homo sapiens, KARPAS-422; data of 14th day; read-out: Karpas422 Proliferation IC50 Nanomoles per Liter
reported endpoint: IC50 (nM)
Kindly answer with a numeric value in nM, unit omitted.

Examples from the recorded data:
molecule | result unit | IC50
CCN(c1cc(-c2cc3c(cc2F)CCC32CCOCC2)cc(C(=O)NCc2c(C)cc(C)[nH]c2=O)c1C)C1CCOCC1 [Example 24] | nM | 0.41
CCN(c1cc(-c2ccc3c(c2)N(CC(F)(F)F)C(=O)C32CCOCC2)cc(C(=O)NCc2c(C)cc(C)[nH]c2=O)c1C)C1CCOCC1 [Example 13] | nM | 1.94

Read the next record carefully.
I would be grateful if you could share the reported IC50 for CCN(c1cc(-c2ccc3c(c2)NC(=O)C32CCC(O)CC2)cc(C(=O)NCc2c(C)cc(C)[nH]c2=O)c1C)C1CCOCC1 (stereo not drawn) [Example 94] . 4.74

----------
Collected pIC50 values appear next to each entry.
Test system: human diffuse large B-cell lymphoma cells (Karpas 422 cell)
experiment summary: Karpas 422 cell proliferation, Calcein AM staining
Assay type: cell-based
measurement parameters: Homo sapiens, KARPAS-422; data of 14th day; read-out: Karpas422 Proliferation IC50 Nanomoles per Liter
pIC50 (log units): -log10 of the concentration in mol/L.

molecule | pIC50
CCN(c1cc(-c2ccc3c(c2)NC(=O)C32CCOCC2)cc(C(=O)NCc2c(C)cc(C)[nH]c2=O)c1C)C1CCN(C)CC1 | 8.44
CCN(c1cc(-c2ccc3c(c2)NC(=O)C32CCNCC2)cc(C(=O)NCc2c(C)cc(C)[nH]c2=O)c1C)C1CCSCC1 | 8.57
CCN1CCC2(CC1)C(=O)Nc1cc(-c3cc(C(=O)NCc4c(C)cc(C)[nH]c4=O)c(C)c(N(CC)C4CCOCC4)c3)ccc12 | 8.55
CCN(c1cc(-c2ccc3c(c2)C2(CCOCC2)C(=O)N3)cc(C(=O)NCc2c(C)cc(C)[nH]c2=O)c1C)C1CCOCC1 | 8.09
CCN(c1cc(-c2cnc3c(c2)NC(=O)C32CCOCC2)cc(C(=O)NCc2c(C)cc(C)[nH]c2=O)c1C)C1CCOCC1 | 8.43

Read the next record carefully.
I would be grateful if you could share the reported pIC50 for CCN(c1cc(-c2ccc3c(c2)NC(=O)C32CCOCC2)cc(C(=O)NCc2c(OC)cc(C)[nH]c2=O)c1C)C1CCC(N(C)CCOC)CC1 (stereo not shown) . 8.35

----------
Collected pIC50 values appear next to each entry.
target entity: Mutant type EZH2(A677G) (Homo sapiens (Human), UniProt Q15910, A677G)
Sequence (Q15910 whole entry A677G): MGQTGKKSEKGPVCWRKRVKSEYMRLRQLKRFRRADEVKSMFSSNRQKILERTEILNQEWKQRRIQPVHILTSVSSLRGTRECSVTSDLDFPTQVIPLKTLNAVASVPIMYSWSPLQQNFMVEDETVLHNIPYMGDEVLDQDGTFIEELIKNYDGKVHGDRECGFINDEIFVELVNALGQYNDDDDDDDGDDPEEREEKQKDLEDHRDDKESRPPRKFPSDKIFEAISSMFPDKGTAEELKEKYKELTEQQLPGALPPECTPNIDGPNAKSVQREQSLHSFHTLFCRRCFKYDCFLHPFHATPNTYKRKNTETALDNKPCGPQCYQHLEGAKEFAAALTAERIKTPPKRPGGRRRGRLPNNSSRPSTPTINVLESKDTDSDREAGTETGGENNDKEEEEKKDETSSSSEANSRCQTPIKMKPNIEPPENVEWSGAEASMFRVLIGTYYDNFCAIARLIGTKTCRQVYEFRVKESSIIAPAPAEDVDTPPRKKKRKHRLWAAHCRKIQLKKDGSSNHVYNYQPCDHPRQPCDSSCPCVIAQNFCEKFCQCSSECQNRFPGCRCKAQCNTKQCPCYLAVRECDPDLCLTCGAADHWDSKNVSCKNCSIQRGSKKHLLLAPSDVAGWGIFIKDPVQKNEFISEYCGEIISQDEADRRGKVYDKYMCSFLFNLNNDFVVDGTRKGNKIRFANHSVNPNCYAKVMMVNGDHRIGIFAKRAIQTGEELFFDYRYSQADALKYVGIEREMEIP
Sequence (O75530 whole entry partner): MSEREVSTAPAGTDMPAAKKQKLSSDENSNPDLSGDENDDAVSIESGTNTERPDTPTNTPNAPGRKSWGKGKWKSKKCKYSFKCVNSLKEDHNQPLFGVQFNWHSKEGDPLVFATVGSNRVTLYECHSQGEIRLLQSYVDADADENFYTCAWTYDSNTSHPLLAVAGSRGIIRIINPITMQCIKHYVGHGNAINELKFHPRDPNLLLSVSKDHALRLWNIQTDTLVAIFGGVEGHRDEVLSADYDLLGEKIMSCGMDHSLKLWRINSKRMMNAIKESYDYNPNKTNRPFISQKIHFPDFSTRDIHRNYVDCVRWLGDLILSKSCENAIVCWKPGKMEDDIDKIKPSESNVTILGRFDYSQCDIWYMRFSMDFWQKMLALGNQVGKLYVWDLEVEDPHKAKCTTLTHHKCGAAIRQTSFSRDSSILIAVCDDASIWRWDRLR
Sequence (Q15022 whole entry partner): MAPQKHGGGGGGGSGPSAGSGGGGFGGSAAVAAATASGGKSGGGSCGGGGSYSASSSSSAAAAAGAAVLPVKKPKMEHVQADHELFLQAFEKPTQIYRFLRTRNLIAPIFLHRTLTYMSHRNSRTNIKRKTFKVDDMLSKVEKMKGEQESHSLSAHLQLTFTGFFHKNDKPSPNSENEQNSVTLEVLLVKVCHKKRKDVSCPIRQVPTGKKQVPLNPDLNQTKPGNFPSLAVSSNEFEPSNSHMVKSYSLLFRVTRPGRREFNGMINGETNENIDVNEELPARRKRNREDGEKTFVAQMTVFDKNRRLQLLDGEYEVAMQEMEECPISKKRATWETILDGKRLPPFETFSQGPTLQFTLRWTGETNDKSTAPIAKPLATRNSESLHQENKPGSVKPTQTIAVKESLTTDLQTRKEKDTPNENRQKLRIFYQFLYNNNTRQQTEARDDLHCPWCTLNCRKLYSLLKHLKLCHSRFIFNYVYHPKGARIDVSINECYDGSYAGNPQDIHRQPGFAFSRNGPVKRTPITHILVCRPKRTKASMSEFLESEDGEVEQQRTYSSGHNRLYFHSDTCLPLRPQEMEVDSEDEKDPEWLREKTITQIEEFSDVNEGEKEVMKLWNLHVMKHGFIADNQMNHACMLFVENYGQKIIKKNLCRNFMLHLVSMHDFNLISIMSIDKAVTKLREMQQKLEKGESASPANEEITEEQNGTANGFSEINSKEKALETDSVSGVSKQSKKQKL
Sequence (Q09028 whole entry partner): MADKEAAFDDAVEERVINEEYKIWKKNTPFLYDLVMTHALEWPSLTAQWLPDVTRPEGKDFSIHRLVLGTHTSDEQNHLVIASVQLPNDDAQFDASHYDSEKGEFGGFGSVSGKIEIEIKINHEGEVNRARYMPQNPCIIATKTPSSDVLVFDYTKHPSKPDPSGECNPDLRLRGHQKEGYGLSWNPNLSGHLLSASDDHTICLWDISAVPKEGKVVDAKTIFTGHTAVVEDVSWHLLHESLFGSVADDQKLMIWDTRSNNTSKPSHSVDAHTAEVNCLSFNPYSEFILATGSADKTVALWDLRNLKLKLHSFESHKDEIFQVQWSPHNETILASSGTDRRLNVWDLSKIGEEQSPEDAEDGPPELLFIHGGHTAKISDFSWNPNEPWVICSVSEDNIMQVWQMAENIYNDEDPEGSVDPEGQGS
Sequence (Q6ZN18 whole entry partner): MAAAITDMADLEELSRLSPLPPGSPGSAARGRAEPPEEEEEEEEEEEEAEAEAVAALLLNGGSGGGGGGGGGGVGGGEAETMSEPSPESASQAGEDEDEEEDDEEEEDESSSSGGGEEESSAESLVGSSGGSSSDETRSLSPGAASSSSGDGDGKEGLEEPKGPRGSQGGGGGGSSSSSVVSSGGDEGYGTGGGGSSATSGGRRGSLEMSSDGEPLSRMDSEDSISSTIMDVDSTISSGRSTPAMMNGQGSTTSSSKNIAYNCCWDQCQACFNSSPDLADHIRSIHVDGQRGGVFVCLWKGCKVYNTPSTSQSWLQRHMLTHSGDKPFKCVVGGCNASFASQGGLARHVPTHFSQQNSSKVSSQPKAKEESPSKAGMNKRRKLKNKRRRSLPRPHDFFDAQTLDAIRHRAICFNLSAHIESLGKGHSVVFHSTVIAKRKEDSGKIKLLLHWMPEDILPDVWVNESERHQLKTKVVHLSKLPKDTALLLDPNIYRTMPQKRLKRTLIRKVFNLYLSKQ
experiment summary: AlphaLISA, mutant type PRC2 complex EZH2(A677G)
Assay type: biochemical
measurement parameters: read-out: Mutant type EZH2(A677G) IC59 Nanomoles per Liter
pIC50 (log units): -log10 of the concentration in mol/L.

Examples from the recorded data:
compound | value reported
CCN(c1cc(-c2ccc3c(c2)NC(=O)C32CCOCC2)cc(C(=O)NCc2c(C)cc(C)[nH]c2=O)c1C)C1CCOCC1F (stereo not drawn) | 9.28
CCN1CCC2(CC1)C(=O)Nc1cc(-c3cc(C(=O)NCc4c(C)cc(C)[nH]c4=O)c(C)c(N(CC)C4CCOCC4)c3)ccc12 | 9.42
CCN(c1cc(-c2ccc3c(c2)NC(=O)C32CCN(C(C)=O)CC2)cc(C(=O)NCc2c(C)cc(C)[nH]c2=O)c1C)C1CCOCC1 | 9.29
CCN(c1cc(-c2ccc3c(c2)NC(=O)C32CCC(O)CC2)cc(C(=O)NCc2c(C)cc(C)[nH]c2=O)c1C)C1CCOCC1 (stereo not drawn) | 9.11
CCN(c1cc(-c2ccc3c(c2)NC(=O)C32CCOCC2)cc(C(=O)NCc2c(OC)cc(C)[nH]c2=O)c1C)C1CCC(N(C)C)CC1 (stereo not drawn) | 9.11

Read the next record carefully.
I would be grateful if you could share the reported pIC50 for CCN(c1cc(-c2ccc3c(c2)C2(CCOCC2)C(=O)N3)cc(C(=O)NCc2c(C)cc(C)[nH]c2=O)c1C)C1CCOCC1 . 9.17
